- EXPERIMENT SUMMARY: method code SF-GLC, from DOI: 10.1016/s0380-1330(82)71969-0
RECORDED ENDPOINT: logP
One number for each entry.

Exercise: Endpoint output: logP of "Clc1ccc(C(c2ccc(Cl)cc2)C(Cl)(Cl)Cl)cc1" . Value?
Key: 5.1

* * *

- EXPERIMENT SUMMARY: method code SF-AS, from DOI: 10.1248/cpb.39.458, PMID: 1829027
- MEASUREMENT CONTEXT: pH 7.0
RECORDED ENDPOINT: logD
Answers are plain numbers.

Exercise: Endpoint output: logD of "CCCC(=O)OC[C@H]1O[C@@H](n2cc(F)c(=O)[nH]c2=O)C[C@@H]1OC(=O)CCC" . Value?
Key: 1.9

* * *

- EXPERIMENT SUMMARY: method code SF-AS, from DOI: 10.1016/0014-2999(72)90235-x, PMID: 4113999
RECORDED ENDPOINT: logP

Exercise: Endpoint output: logP of "OCCN1CCN(CCC=C2c3ccccc3Sc3ccc(Cl)cc32)CC1" . Value?
Key: 3

* * *

Field: logD. Provide a value for each of the compounds that follow.
- EXPERIMENT SUMMARY: method code SF-CR+AS, from DOI: 10.1007/bf00500994, PMID: 4267539
- MEASUREMENT CONTEXT: pH 7.4
One number for each entry.

INSERT INTO assay_data (smiles_code, obs_value) VALUES
  ('O=CC(Cl)(Cl)Cl', 1.61);

Shift focus to the following entry.
Exercise: Endpoint output: logD of "OCC(Cl)(Cl)Cl" . Value?
Key: 1.42

* * *

- EXPERIMENT SUMMARY: method code SF-AS, from DOI: 10.1016/0014-2999(86)90191-3, PMID: 3780854
- MEASUREMENT CONTEXT: pH 7.4
RECORDED ENDPOINT: logD
Give bare numbers.

Exercise: Endpoint output: logD of "COc1noc2c1CN(C)CC2" . Value?
Key: 0.4

* * *

Field: logP. Provide a value for each of the compounds that follow.
- EXPERIMENT SUMMARY: method code SF-AS, from DOI: 10.1016/j.ejmech.2011.02.056, PMID: 21420207

INSERT INTO assay_data (smiles_code, obs_value) VALUES
  ('CCCCCCCCCCCCCCCC(=O)N[C@H]1C[C@H](O[C@H]2C[C@](O)(C(=O)CO)Cc3c(O)c4c(c(O)c32)C(=O)c2c(OC)cccc2C4=O)O[C@@H](C)[C@H]1O', 2.19),
  ('CCCCCCCC(=O)N[C@H]1C[C@H](O[C@H]2C[C@](O)(C(=O)CO)Cc3c(O)c4c(c(O)c32)C(=O)c2c(OC)cccc2C4=O)O[C@@H](C)[C@H]1O', 1.81);

Exercise: Endpoint output: logP of "CCCCCCCCCCCC(=O)N[C@H]1C[C@H](O[C@H]2C[C@](O)(C(=O)CO)Cc3c(O)c4c(c(O)c32)C(=O)c2c(OC)cccc2C4=O)O[C@@H](C)[C@H]1O" . Value?
Key: 1.96

* * *

Field: logP. Provide a value for each of the molecules that follow.
Numbers only.

INSERT INTO assay_data (molecule, recorded_endpoint, obs_value) VALUES
  ('O=C1C(CCS(=O)c2ccccc2)C(=O)N(c2ccccc2)N1c1ccccc1 (stereo not drawn)', 'logP', 3.56),
  ('O=C1C(CCS(=O)(=O)c2ccccc2)C(=O)N(c2ccccc2)N1c1ccccc1', 'logP', 3.51);

Exercise: Endpoint output: logP of "CC1=C(CC(=O)O)c2cc(F)ccc2/C1=C/c1ccc(S(C)(=O)=O)cc1" . Value?
Key: 3.29

* * *

- EXPERIMENT SUMMARY: method code SF-HPLC, from DOI: 10.1016/0378-5173(91)90409-h
- MEASUREMENT CONTEXT: pH 7.4
RECORDED ENDPOINT: logD
One number for each entry.

Exercise: Endpoint output: logD of NC(=O)[C@@H]1CCCN1C(=O)[C@H](Cc1cn(C2OC(=O)c3ccccc32)cn1)NC(=O)[C@@H]1CCC(=O)N1 (stereo partly specified) . Value?
Key: -1.25

* * *

- EXPERIMENT SUMMARY: method code SF, from DOI: 10.1016/0223-5234(94)90060-4
- MEASUREMENT CONTEXT: pH 7.4
RECORDED ENDPOINT: logD
Give bare numbers.

Examples from the recorded data:
INSERT INTO measurements (compound, recorded_endpoint, obs_value) VALUES
  ('CC(C=CC1=C(C)CCCC1(C)C)=CC=CC(C)=CC(=O)Nc1ccn(C2CSC(CO)O2)c(=O)n1 (stereo not drawn)', 'logD', 1.23),
  ('CC(=O)OCC1OC(n2ccc(N)nc2=O)CS1 (stereo not drawn)', 'logD', 0.51);

Shift focus to the following entry.
Exercise: Endpoint output: logD of CC(C=CC1=C(C)CCCC1(C)C)=CC=CC(C)=CC(=O)OCC1OC(n2ccc(N)nc2=O)CS1 (stereo not drawn) . Value?
Key: 1.24

* * *

Field: logD. Provide a value for each of the compounds that follow.
- EXPERIMENT SUMMARY: method code SF, from DOI: 10.1016/s0969-8051(99)00063-3, PMID: 10628565
- MEASUREMENT CONTEXT: pH 7.4
One number for each entry.

INSERT INTO results (compound, recorded_endpoint, obs_value) VALUES
  ('OC[C@@H]1[C@@H](O)[C@H](O)[C@@H](O)CN1C/C=C/I', 'logD', -0.37);

Shift focus to the following entry.
Exercise: Endpoint output: logD of CC(=O)OCC1C(OC(C)=O)C(OC(C)=O)C(OC(C)=O)CN1Cc1cccc(I)c1 (configuration not stated) . Value?
Key: 3.16

* * *

- EXPERIMENT SUMMARY: method code SF-AS, from Lippold, B.; Lichey, J. (1984). Transport of drugs through lipophilic polymer membranes. II. Influence of the partition and diffusion coefficients. Acta pharmaceutica technologica, 30(2)140-154.
RECORDED ENDPOINT: logP
Numbers only.

Exercise: Endpoint output: logP of Cc1ccc(Cl)c(OCC(O)CNC(C)(C)C)c1 (stereo unspecified) . Value?
Key: 2.8

* * *

RECORDED ENDPOINT: logP
Give bare numbers.

# map each molecule to its logP
1. CN1CCN(C(COCc2cc(C(F)(F)F)cc(C(F)(F)F)c2)c2ccccc2)CC1 (configuration not stated)
2. COC(=O)CN1CCN(C(COCc2cc(C(F)(F)F)cc(C(F)(F)F)c2)c2ccccc2)CC1 (configuration not stated)

Key:
1: 3.2; 2: 3.11

* * *

- EXPERIMENT SUMMARY: method code SF-AS, from DOI: 10.1021/jm00304a030, PMID: 5793164
- MEASUREMENT CONTEXT: pH 7.4
RECORDED ENDPOINT: logD
One number for each entry.

Exercise: Endpoint output: logD of "Brc1ccc2[nH]ccc2c1" . Value?
Key: 3

* * *

- EXPERIMENT SUMMARY: method code SF-HPLC, from DOI: 10.1016/j.apradiso.2007.04.014, PMID: 17574425
- MEASUREMENT CONTEXT: pH 7.4
RECORDED ENDPOINT: logD

INSERT INTO assay_data (smiles_code, obs_value) VALUES
  ('O=C(CCl)Nc1cc2c(Nc3cc(Cl)c(Cl)cc3F)ncnc2cc1OCCOCCOCCOCCOCCOCCF', 4.75);

Shift focus to the following entry.
Exercise: Endpoint output: logD of "O=C(CCl)Nc1ccc2ncnc(Nc3cc(Cl)c(Cl)cc3F)c2c1" . Value?
Key: 4.12

* * *

- EXPERIMENT SUMMARY: method code SF-AS, from DOI: 10.1007/s00044-012-0399-x
RECORDED ENDPOINT: logP
Numbers only.

Exercise: Endpoint output: logP of "COC(=O)CN1Cc2ccccc2C1" . Value?
Key: -0.03

* * *

Field: logP. Provide a value for each of the molecules that follow.
Answers are plain numbers.

INSERT INTO measurements (smiles_code, obs_value) VALUES
  ('Fc1ccc(-c2ccc(-c3ccc(F)cc3)o2)cc1', 5.11),
  ('COc1ccc(C(c2ccc(OC)cc2)C(Cl)Cl)cc1', 3.78);

Shift focus to the following entry.
Exercise: Endpoint output: logP of "O=C1CCCCCCCCCCC1" . Value?
Key: 4.1

* * *

RECORDED ENDPOINT: logP
Answers are plain numbers.

Exercise: Endpoint output: logP of "CC(C)Cn1cnc2c(N)nc3ccccc3c21" . Value?
Key: 2.89

* * *

Field: logP. Provide a value for each of the molecules that follow.
- EXPERIMENT SUMMARY: method code SF-AS, from DOI: 10.1016/0048-3575(87)90152-0
One number for each entry.

INSERT INTO measurements (molecule, obs_value) VALUES
  ('CC(C)CC(=O)Oc1ccccc1', 3.18),
  ('COC(=O)C(c1ccccc1)C(C)C (stereo not given)', 3.33),
  ('CCOC(C(=O)OCc1ccccc1)C(C)C (stereo not given)', 3.29);

# map each molecule to its logP
1. CC(C)[C@H](Nc1ccccc1)C(=O)OCc1ccccc1
2. CC(C)CC(=O)OCc1ccccc1

Key:
1. 4.41
2. 3.26
